# ASSAY: HUVEC growth inhibition – cell-based, human, primary screen (AID 575);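 note: 100% = median of untreated cell wells with 0.1% DMSO on each plate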
# PARTICULARS: HUVEC proliferation, CellTiter-Glo luminescence, 72 h; at 10 µM; active compounds read low
With a cut-off of 90%, any viability strictly below it is called 1; any viability meeting it or above is called 0.

Example results:
Cc1ccc(-c2nn[nH]n2)cc1 : 0
FC(F)Oc1cccc2cccnc12 : 0
COc1ccc(OC)c(NC(=O)C23CCC(C)(C(=O)C2)C3(C)C)c1 (centres undefined) : 0
CC(C)(C)N=C1NC(=NC(C)(C)C)c2ccccc21 : 1
COc1ccc(CN(C)CC(=O)c2c(N)n(Cc3ccccc3)c(=O)n(C)c2=O)c(OC)c1 : 0
CCS(=O)(=O)c1ccc(S(=O)(=O)CC)s1 : 0
COc1ccccc1N1CCN(C(=O)c2cc(-c3ccc(Cl)c(Cl)c3)on2)CC1 : 1
O=C(CCN1CCN(CCO)CC1)Nc1ccc(OCc2ccccc2)cc1 : 1
CN1CCN(c2ccc(Cl)cc2NC(=O)c2cccc(S(=O)(=O)N(C)C)c2)CC1 : 1
CC(C)c1nnc(NC(=O)CCC(=O)NCc2ccc3c(c2)OCO3)s1 : 0

**Query** viability strictly < 90% for this compound? Cc1noc(C)c1CSc1nc2ccccc2s1
**Result** 1

**Query** viability strictly < 90% for this compound? Cn1cccc1Cc1nnc(SCC(N)=O)n1-c1ccc(F)cc1
**Result** 0

**Query** viability strictly < 90% for this compound? Cc1ccc2cc(CN(Cc3ccc(F)cc3)Cc3nnnn3C3CCCC3)c(=O)[nH]c2c1
**Result** 1

**Query** viability strictly < 90% for this compound? COc1ccccc1C(O)P(=O)(OC(C)C)c1ccc(N(C)C)cc1 (centres undefined)
**Result** 0

**Query** viability strictly < 90% for this compound? CC(CCc1ccccc1)NC(=O)CSc1nc(N)cc(N)n1 (centres undefined)
**Result** 0

**Query** viability strictly < 90% for this compound? CN(C(=O)Cn1c(=O)n(CCCCC(=O)NC2CCCC2)c(=O)c2ccccc21)C1CCCCC1
**Result** 1

**Query** viability strictly < 90% for this compound? Cc1csc(NC(=O)CCn2c(=O)oc3ccccc32)n1
**Result** 0

**Query** viability strictly < 90% for this compound? O=C(O)C1CCCCC1C(=O)Nc1ccccn1 (centres undefined)
**Result** 0

**Query** viability strictly < 90% for this compound? c1ccc(Cn2ncc3c2ncn2c(-c4ccncc4)nnc32)cc1
**Result** 0

**Query** viability strictly < 90% for this compound? c1ccc2c(NC3CCCC3)nnc(NC3CCCC3)c2c1
**Result** 1

**Query** viability strictly < 90% for this compound? CCOCC(=O)Nc1nc2ccc(OC)cc2s1
**Result** 0

###

Entries annotated with measured viability
# ASSAY: SK-BR-3 cell growth inhibitors, pilot screen, 24 h, human (AID 572);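 note: compound exposure lasted between 18 and 24 h rather than exactly 24 h; 100% = carrier-treated control wells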
# PARTICULARS: SK-BR-3 viability, CellTiter-Glo luminescence, at 10 µM, active compounds read low
Return type: number; implicit unit %.

Sample CCC1CCCCN1C(=O)CSc1nnc(-c2ccco2)o1 (stereo unspecified) ; viability observed: 126

Sample CC(=O)c1ccc2c3c(cccc13)C(=O)N(c1c(C)nn(C)c1C)C2=O ; viability observed: 99

Sample COc1ccc(-c2c3c(=O)n(C)c(=O)n(C)c3cn2-c2cccc(OC)c2)cc1 ; viability observed: 105

Sample CCC1CCCCN1C(=O)C1CC(c2cc(Cl)c(OC)cc2OC)=NO1 (stereo unspecified) ; viability observed: 86

Sample Cc1cc(C(=O)N2CCCc3ccccc32)no1 ; viability observed: 98

Sample c1ccc(Cn2ncc3c2ncn2c(-c4ccncc4)nnc32)cc1 ; viability observed: 99

Sample COC(=O)Nc1sccc1C(=O)Nc1sccc1C(=O)OC ; viability observed: 62

Sample Cc1nnc(SCc2cccc(Oc3ccccc3)c2)n1N ; viability observed: 74

Sample O=C(Cn1cnc2c(cnn2-c2ccccc2)c1=O)NCCc1ccccc1 ; viability observed: 102

Sample CC(C)(C)NS(=O)(=O)c1ccc(CCC(=O)O)cc1 ; viability observed: 100

Sample CC1(C)CC(=O)C(CC(=O)NC(=O)NCc2ccccc2)=C(O)C1 ; viability observed: 114
